Test: CytoTox 96 Non-Radioactive Cytotoxicity Assay
Type: cell-based, Human
Conditions: human; HCT-8 cells, 10 µM
Result type: viability at 10 µM (%)
Respond numerically; units are % and should not be typed.

Need viability at 10 µM of CC(C)(NC(=O)Nc1ccc(Cl)c([N+](=O)[O-])c1)c1cccc(-c2cccs2)c1 [Compound 22] , thanks.
98.5

Need viability at 10 µM of CC(C)(NC(=O)NCc1ccccc1)c1cccc(-c2cn[nH]c2)c1 [Compound 7] , thanks.
96.7

Need viability at 10 µM of CC(C)(NC(=O)Nc1ccc(Cl)c([N+](=O)[O-])c1)c1cccc(-c2nccs2)c1 [Compound 20] , thanks.
98.4

Need viability at 10 µM of CC(C)(NC(=O)Nc1ccc(Cl)c([N+](=O)[O-])c1)c1cccc(-c2c[nH]cn2)c1 [Compound 19] , thanks.
97.4
